Each recorded value in this set is attributed to ChEMBL document CHEMBL4513216.

# testDescription: Toxicity liver stage against HepG2, at 10uM
# Format: cell-based
# Set-up: test concentration 10 uM, cell line HepG2-A16-CD81EGFP
# conditionLabel: human, HepG2-A16-CD81EGFP cells; read-out: INHIBITION
measurementLabel: cytotoxicity at 10 µM (%)
// note: answer is a bare numeric in %

CS(=O)(=O)N1Cc2nccn2CC(CN2CCCC2)C1 (stereo not given): -111

Field request: cytotoxicity at 10 µM | item: c1ccc2c(c1)CCC21CN(CCc2ccncc2)CCO1 (stereo not given)
-0.934

What do you get for CC1c2ncc(CN3CCN(C)CC3)n2CCN1Cc1ccccn1 (stereo not given) ?
-0.23

What do you get for `C=C(C)CN(CC)C(=O)c1cc(C)ccc1NS(C)(=O)=O` ?
5.69

---

# testDescription: Toxicity liver stage against HepG2, at 10uM
# Format: cell-based
# Parameters: test concentration 10 uM, cell line HepG2-A16-CD81EGFP
# conditionLabel: human, HepG2-A16-CD81EGFP cells; read-out: INHIBITION
measurementLabel: cytotoxicity at 10 µM (%)
// note: answer is a bare numeric in %

Known results for molecules:
CSCCN1CCN(c2nc(N)ncc2C)CC1: 1.54
COc1ccc(C(=O)NS(=O)(=O)c2cccc(C#N)c2)cc1: -2.97
C=C(Cl)CN(C)C1CCN(CCc2ccccn2)CC1: -2.93
CC(C)CC(CCO)CNC(=O)N1CCOC2(CCCC2)C1 (stereo unspecified): 6.37

Field request: cytotoxicity at 10 µM | item: `CN(C(=O)CCc1nc(C2CC2)no1)c1cc(C#N)c2ccccc2n1`
0.55

What do you get for `COCc1nc(N(C)C)ncc1C(=O)Nc1ccc(Cl)cc1` ?
0.474

What do you get for Cc1cc(NC(C)c2n[nH]c(C)n2)n2nc(C)c(C)c2n1 (stereo unspecified) ?
-11.4

What do you get for COC1CCCN(C(=O)c2sc(CC(C)C)nc2C)C1 (stereo unspecified) ?
10.9

What do you get for `CN(C)c1ccc(CNC(=O)Nc2ccc(S(C)(=O)=O)nc2)cc1` ?
-2.48

What do you get for `O=C(CN1CC(n2cccn2)C1)NCCCN1CCCC1=O` ?
-29.9

What do you get for `CCN(CC)C(=O)c1nc2c(s1)CCN(C(=O)CCC(=O)OC)CC2` ?
12.9

---

# testDescription: Toxicity liver stage against HepG2, at 10uM
# Type: cell-based
# Design: test concentration 10 uM, cell line HepG2-A16-CD81EGFP
# conditionLabel: human, HepG2-A16-CD81EGFP cells; read-out: INHIBITION
measurementLabel: cytotoxicity at 10 µM (%)
// note: answer is a bare numeric in %

Field request: cytotoxicity at 10 µM | item: Cn1cc(CC(=O)N2CCCC(c3cc(C(F)(F)F)[nH]n3)C2)cn1 (stereo not drawn)
-7.11

What do you get for `CNc1ncc(CN(C)Cc2cc3n(n2)CCNC3)cn1` ?
-5.71

What do you get for `CCc1noc(Cn2c(=O)c3c(C(F)(F)F)cc(C)nc3n2C)n1` ?
-3.44

---

# testDescription: Toxicity liver stage against HepG2, at 10uM
# Assay type: cell-based
# Design: test concentration 10 uM, cell line HepG2-A16-CD81EGFP
# conditionLabel: human, HepG2-A16-CD81EGFP cells; read-out: INHIBITION
cytotoxicity at 10 µM by entry:
// note: answer is a bare numeric in %

Field request: cytotoxicity at 10 µM | item: `CN(C(=O)c1cccc2[nH]ncc12)C1CCN(c2ccccn2)CC1`
7.31

What do you get for COCCN1CCOCC2(C1)CN(C(=O)c1conc1C)CCO2 (centres undefined) ?
7.1

What do you get for N#CC1(NC(=O)COc2cc(Cl)cc(Cl)c2)CCSC1 (centres undefined) ?
7.95

What do you get for Cc1noc(CCCNS(=O)(=O)N2CCCC2c2ccco2)n1 (centres undefined) ?
-7.88

---

# testDescription: Toxicity liver stage against HepG2, at 10uM
# Type: cell-based
# Design: test concentration 10 uM, cell line HepG2-A16-CD81EGFP
# conditionLabel: human, HepG2-A16-CD81EGFP cells; read-out: INHIBITION
cytotoxicity at 10 µM by entry:
// note: answer is a bare numeric in %

Known results for compounds:
Cc1cccc(-n2cc(CNc3ncnc4c3CCNCC4)cn2)c1: 3.96
CNC(=O)[C@@H](c1ccccc1F)N1CCC[C@H]1C(=O)NC1CCCC1: 0.344
CCS(=O)(=O)N1CCc2ccc(NC(=O)NC(C)(C)C)cc21: -6.69
CCOC(=O)C1CCN(C(=O)CN2CCCC2c2ccccc2C)CC1 (stereo not given): 7.97
CC(C)n1cc(CN2CCCN(C(=O)C3CCCN3C)CC2)cn1 (stereo not given): -10
Cc1nc(C)c(C(=O)NCCNC(=O)Cc2ccccc2)s1: -7.89
CCCNC(=O)c1cc(Br)c2c(c1)OCCO2: 9.65
CCC(C)Oc1ccc(CNCCc2c[nH]cn2)cc1Cl (stereo not given): 1.09

Field request: cytotoxicity at 10 µM | item: O=C(CC1CN(Cc2ccccc2)CCO1)Nc1ccsc1 (stereo not given)
-16.4

What do you get for CCOC(=O)C1CN(S(C)(=O)=O)Cc2ncn(CC)c21 (stereo not given) ?
6.74

What do you get for `CCOc1c(CNCCCn2ccnc2)cc(Cl)cc1OC` ?
-3.88

What do you get for `Cn1c(-c2cc3n(n2)CCCN(CC(=O)O)C3)nc2ccccc21` ?
2.68

What do you get for `Cc1ccc(OC2(C(=O)O)CCN(C(=O)c3cc(C)oc3C)CC2)cn1` ?
0.0255

What do you get for COC(=O)c1ccoc1CN(C)CC(=O)NC1CCS(=O)(=O)C1 (stereo not given) ?
-14.2

What do you get for `CC(C)n1cc(CN2CCCN(C(=O)CN3CCCC3=O)CC2)cn1` ?
-27.5

---

cytotoxicity at 10 µM by entry:
# testDescription: Toxicity liver stage against HepG2, at 10uM
# Format: cell-based
# Parameters: test concentration 10 uM, cell line HepG2-A16-CD81EGFP
# conditionLabel: human, HepG2-A16-CD81EGFP cells; read-out: INHIBITION
// note: answer is a bare numeric in %

Known results for compounds:
CC(C)(C(=O)NCC(N)=O)c1ccccc1F: -5.33
CCc1c(C)n(CC(C)=O)c2nc3ccccc3n2c1=O: 5.44

Field request: cytotoxicity at 10 µM | item: `Cc1ccoc1C(=O)N(CCN(C)C)Cc1ccccn1`
-5.47

What do you get for `COc1ccc(Cl)cc1NC(=O)CCNc1ccc(C#N)cn1` ?
2.59

What do you get for `CN1CCC(N(Cc2ccco2)S(=O)(=O)c2ccc(Cl)cc2)CC1` ?
-1.1

What do you get for Cc1ncc(CN(C)CC(O)c2ccc(Br)cc2)s1 (stereo not drawn) ?
7.12

---

# testDescription: Toxicity liver stage against HepG2, at 10uM
# Assay type: cell-based
# Design: test concentration 10 uM, cell line HepG2-A16-CD81EGFP
# conditionLabel: human, HepG2-A16-CD81EGFP cells; read-out: INHIBITION
cytotoxicity at 10 µM by entry:
// note: answer is a bare numeric in %

CC(C)(C)OC(=O)NCCc1csc(N2CCCC2)n1: 24.9
Cc1noc2nc(C3CCN(CC4=CCCOC4)CC3)cc(C(F)F)c12: 0.307
Cc1ccc(OCC(O)COC2CCOCC2)c(Br)c1 (stereo unspecified): -4.66

Field request: cytotoxicity at 10 µM | item: `O=C(Cn1cncn1)NCC1CCN(Cc2ccccc2Cl)CC1`
-3.84

What do you get for `CCN1CCC2(CCN(Cc3nccs3)CC2)C1=O` ?
-0.311

What do you get for Fc1ccc(C2CCCN2Cc2nc(Cc3ccccc3F)no2)cc1 (stereo unspecified) ?
-18.2

What do you get for `O=C1C[C@@H]2CC[C@H](CN1)N2C(=O)CCc1ccsc1` ?
-6.06

What do you get for CC(C)(C)CC(=O)N1CSCC1C(=O)NCc1cccc(C#N)c1 (stereo unspecified) ?
-9.78

What do you get for Cn1cccc1C(=O)N1CCCCC1c1[nH]ncc1S(C)(=O)=O (stereo unspecified) ?
-4.66

What do you get for `Cc1ccc(C(=O)N2CCC(C(F)(F)F)CC2)cc1N1CCNC1=O` ?
2.01

---

# testDescription: Toxicity liver stage against HepG2, at 10uM
# Format: cell-based
# Parameters: test concentration 10 uM, cell line HepG2-A16-CD81EGFP
# conditionLabel: human, HepG2-A16-CD81EGFP cells; read-out: INHIBITION
measurementLabel: cytotoxicity at 10 µM (%)
// note: answer is a bare numeric in %

CNc1ncc(CN(C)CCN2CCCCC2)cn1: 17.7
CS(=O)(=O)NC[C@]1(O)CCN(C(=O)Cc2cccs2)C[C@H]1O: -17.9
C[C@@H]1CN(Cc2ccncc2)C[C@@]1(O)C1CC1: -5.08
COCC1COCCC12CCN(CCc1ccccc1)CC2 (stereo unspecified): -26
c1csc(CN2CCC3(CCCN(c4nncs4)C3)C2)n1 (stereo unspecified): -144

Field request: cytotoxicity at 10 µM | item: CCCS(=O)(=O)N1CCCC1c1cccc(N(C)C)c1 (stereo unspecified)
1.62

What do you get for `Cn1ccc(C(=O)N2C[C@H]3CCC[C@@]3(COCc3cccnc3)C2)n1` ?
6.87

What do you get for CN(C)C(=O)COC1COC2(CCN(CC3CC3)CC2)C1 (stereo unspecified) ?
-108

What do you get for `Cc1cc(CN2CCC(CNS(=O)(=O)c3ccccc3F)CC2)c(C)o1` ?
5.48
